The entries below come with measured inhibition values attached.
biological target: Beta-1 adrenergic receptor (Homo sapiens); conditions: Compound concentration 10 µM
Description: PDSP Primary Binding target: ADRB1 - Compounds are tested at 10 uM concentration, plate are incubated at room temperature in the dark for 90 minutes. Reaction are stopped by vacuum filtration onto 0.3% polyethyleneimine soaked filter mats using Filtermate harvester. Scintilation cocktail is then melted onto microwave-dried filters on a hot plate and the radio activity is counted in Microbia counter.
OBSERVATION_TYPE: inhibition (%)

1) CO[C@@H]1COCC[C@@H]1N[C@@H]1CC[C@@](C(=O)N2CCc3ncc(C(F)(F)F)cc3C2)(C(C)C)C1; 28.2
2) COc1ccc2[nH]cc(CCNC(C)=O)c2c1; 12
3) Cc1cc(C)cc(-c2cnc3cc(Cl)c(-c4cccc(O)c4)cc3c2OCCCN)c1; 19.6
4) CC1(C)SSC(C)(C)[C@@H](NC(=O)[C@@H](N)Cc2ccc(O)cc2)C(=O)NCC(=O)N[C@@H](Cc2ccccc2)C(=O)N[C@H]1C(=O)O; -5.41
5) Cc1c(C2=CCN(C(=O)N(C)C(C)C)CC2)nnn1-c1cccnc1F; -5.97
6) NCCc1cn(S(=O)(=O)c2c(Cl)nc3sccn23)c2ccccc12; 44.4
7) N#Cc1ccc2[nH]cc(CCCCN3CCN(c4ccc5oc(C(N)=O)cc5c4)CC3)c2c1; 11.6
8) FC(F)(F)c1c(N2CCC(c3ccccc3)CC2)ccn2c(CC3CC3)nnc12; 22.1
9) N#Cc1ccc(NC(=O)Nc2ccccc2Br)c2nn[nH]c12; 26.6
